assayed-target: T1, scPan3 zinc finger (Saccharomyces cerevisiae, UniProt P36102 1-41)
T1 chain: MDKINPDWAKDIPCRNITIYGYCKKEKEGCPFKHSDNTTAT
assay-summary: NMR titration; Zn2+; apparent Kd per residue: 62 ± 4, 93 ± 11, 100 ± 13 (peaks of Trp8, Ala9, Asn16); FP: 10 mM Tris pH 8.0, 50 mM NaCl, 1 mM MgCl2, 5 mM beta-mercaptoethanol, 20 nM RNA, temperature not stated; EMSA: deadenylation assay buffer (composition not in material), 0.1-3 uM complex, 40 ng RNA in 10 ul, 15 min RT; NMR: 150 uM protein, 150 uM RNA (HSQC)
measurement-parameters: protein: recombinant; tags: lipoyl domain/His fusion removed by TEV
measured-endpoint: Kd

(Q) Dear colleague, I am looking for the recorded Kd of the following binder: AAAAAAAAAAAAAAA (ssRNA) [polyA15 RNA (NMR)]
(A) ~77.5 µM
